Parameter: growth. Scope: all listed entries.
- Test system: 786-0 renal
- TEST DESCRIPTION: NCI-60 one-dose screen, 48 h (100 = growth as untreated, 0 = no growth, -100 = all killed)
- ASSAY SETUP: 10 µM unless noted
- Procedure: Cells are grown in 96 well plates and exposed to the test compound for 48 hours. Compounds are tested at a single concentration, which is 10^-5 M for most compounds. The reported endpoint is percent growth (GI% or GIPRCNT), where numbers from 0 - 100% represent growth inhibition, and numbers from -100% - 0 represent cell death. For example, a value of 40 represents 60% growth inhibition. A value of 0 means no net growth occurred over the course of the experiment. […]
Compounds without any hit were thinned out: in the full panel of roughly 83,000, 20% have a hit. Activity calls are given as the source filed them. Rule for the calls: active = growth percent below 10; inactive = the rest.

Some molecules with known growth results, for comparison:
CS(=O)(=O)c1nccc(-c2c(-c3ccc(F)c(OCc4ccccc4)c3)nc3sccn23)n1
80.5% (inactive)
CC(C)(C)OC(=O)N1CCN(S(=O)(=O)/N=C2\NC(=O)NC2=C(Cl)Cl)CC1
101% (inactive)
O=C(CSc1nnc(-c2cccs2)n1-c1ccccc1)Nc1ccc(F)cc1
103% (inactive)
CN(C)c1ccc(/C=N/Nc2nc(N/N=C/c3ccc(N(C)C)cc3)nc(N3CCOCC3)n2)cc1
84.6% (inactive)
COc1ccc(-c2nnc(/N=C3/C(=O)Nc4ccc(Br)cc43)o2)cc1
103% (inactive)

Input: Give the measured growth of COc1cc2c3c(n(CCCNC4CCC4)c(=O)c2cc1OC)-c1cc2c(cc1C3=O)OCO2 .
Output: -85.2% (active)

Input: Try this molecule too: Nc1c(C(=O)c2ccccc2)sc2nc(-c3cnccn3)cc(-c3cccs3)c12
Output: 106% (inactive)

Input: Do the same for O=C(Nc1cc(F)cc2cccnc12)c1cnc(N2CCOCC2)cn1 please
Output: 65.7% (inactive)

Input: Cn1cc(-c2nn3cc(-c4ccncc4)nc3s2)c2cc(Cl)ccc21 , same question.
Output: 89.1% (inactive)

Input: Continue with O=C1[C@@H]2Cc3c([nH]c4ccccc34)[C@H](c3c(Cl)cccc3Cl)N2C(=O)CN1C1CCN(Cc2c(F)cccc2F)CC1
Output: 99.2% (inactive)

Input: Follow-up item: O=c1cc(-c2ccccc2)nc2sc(-c3c[nH]c4ccc(F)cc34)nn12
Output: 15.8% (inactive)

Input: And then COc1ccc([C@H]2[C@H](O)C(=O)N2c2cc(OC)c(OC)c(OC)c2)cc1Cl , what is it?
Output: 22.1% (inactive)

Input: Continue with CCOC(=O)c1c(NC(=O)c2cccc(C(F)(F)F)c2)sc2c(CN3CCN(C)CC3)c(O)ccc12
Output: -83.6% (active)

Input: Thanks! And COc1ccc(CCN2C(=O)/C(=C/c3nc(CO)cs3)SC2=S)cc1 ?
Output: 27.9% (inactive)

Input: Moving on to the next molecule: Cc1ccc(NC(=O)c2cc(/C=C/C(=O)NO)cc(C(F)(F)F)c2)cc1Nc1nccc(-c2cccnc2)n1
Output: -22% (active)
